Hi there, I'd appreciate the recorded % inhibition of biotinylated nAbs for every entry that follows.
Molecular target: T1, EBV gp350 expressed on the surface of stably transfected CHO cells (Epstein-Barr virus, UniProt P03200 1-907)
T1 construct: also called native gp350; gp350 expressing CHO cells
T1 sequence: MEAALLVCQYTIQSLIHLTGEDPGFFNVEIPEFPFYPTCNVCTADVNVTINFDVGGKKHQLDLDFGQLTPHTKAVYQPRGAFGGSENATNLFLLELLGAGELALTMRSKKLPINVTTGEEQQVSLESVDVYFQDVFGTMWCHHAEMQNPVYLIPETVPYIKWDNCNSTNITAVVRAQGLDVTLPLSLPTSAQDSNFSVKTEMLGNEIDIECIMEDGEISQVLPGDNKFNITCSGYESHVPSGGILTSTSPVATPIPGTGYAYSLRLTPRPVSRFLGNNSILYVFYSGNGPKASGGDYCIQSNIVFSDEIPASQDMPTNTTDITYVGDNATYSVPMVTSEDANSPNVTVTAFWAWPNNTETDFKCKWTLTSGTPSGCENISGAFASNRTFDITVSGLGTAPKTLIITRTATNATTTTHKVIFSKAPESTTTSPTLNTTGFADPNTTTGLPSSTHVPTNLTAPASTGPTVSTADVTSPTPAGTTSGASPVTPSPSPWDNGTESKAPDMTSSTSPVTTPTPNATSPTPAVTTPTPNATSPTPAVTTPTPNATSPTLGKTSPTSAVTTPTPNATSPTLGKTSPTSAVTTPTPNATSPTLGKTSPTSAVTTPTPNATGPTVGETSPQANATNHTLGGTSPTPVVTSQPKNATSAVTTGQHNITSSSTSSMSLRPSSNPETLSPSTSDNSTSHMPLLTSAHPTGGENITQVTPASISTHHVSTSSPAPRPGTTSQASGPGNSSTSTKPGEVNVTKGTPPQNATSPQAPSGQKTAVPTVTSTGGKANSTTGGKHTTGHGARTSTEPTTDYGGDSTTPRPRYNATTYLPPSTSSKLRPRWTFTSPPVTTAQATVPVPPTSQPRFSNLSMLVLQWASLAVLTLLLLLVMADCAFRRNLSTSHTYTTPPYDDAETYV
Experiment: cross-competition on gp350-CHO cells (flow), unlabeled 500 µg/ml; competitor: biotinylated HB5
One number for each entry, in %.

Use the examples below as a reference point.
{"Binder": "HB17 (antibody, V domains shown) VH: AELVIPGASVKVSCKASGYTFTSYWIHWVKQWPGQGLEWIGEINPNNGHTNYNEKFKSKATLTVDKSSSTAYMQLSSLTSEDSAVYYCARNLFYYSRPDYWGQGTSVTVSS VL: SSLSASLGDRVTISCRASQDIGNYLNWYQQKPDGTIKLLIYYTSRLHSGVPSRFSGSGSGTDYSLTISNLEEEDIATYFCQQGNTLPPTFGGGTKLEIKR", "% inhibition of biotinylated nAbs (%)": 32}
{"Binder": "HB20 (antibody, V domains shown) VH: ELVKPGASVKLSCKASGYTFTSYWIQWVKQRPGQGLEWIGEINPTNGHTNYNEKFKTKATLTVDKSSSTAYMRLSSLTSEDSAVYYCARNLYYYGRPDYWGQGTSVTVSS VL: SSLSASLGDRVTISCRASQDIGNYLNWYQQKPDGTVKLLIYYTSRLHSGVPSRFSGSGSGTDYSLTISNLEQEDIATYFCQQGNALPPTFGGGTKLEIKR", "% inhibition of biotinylated nAbs (%)": 97}
{"Binder": "murine 72A1 (m72A1), anti-EBV gp350 neutralizing antibody from hybridoma HB168 (antibody, V domains shown, also called nAb-72A1; mouse 72A1) VH: EVQLQQSGPELVKPGTSMKISCKASGSSFTDYTMNWMKQSHGKNLEWIGLINPYNGGTRYNQKFKGKATLTLDKSSSTAYMEVLSLTSEDSAVYYCAGGLRRVNWFAYWGQGTLVSVSA VL: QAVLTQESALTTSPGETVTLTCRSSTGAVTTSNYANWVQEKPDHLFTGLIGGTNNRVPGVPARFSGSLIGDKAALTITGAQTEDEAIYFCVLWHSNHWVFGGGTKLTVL", "% inhibition of biotinylated nAbs (%)": 97}
{"Binder": "HB1 (antibody, V domains shown) VH: PGLVAPSQSLSITCTVSGFLLTTYGVHWVRQPPGKGLEWLGVIWAGGSTNYNSALMSRLSINKDISKSQVFLKMNSLQTDDTAMYYCTRDRGYGYLYAMDYWGQGTSVTVSS VL: KFMSTSVGDRVSVTCKASQNVGTNVAWYQQKPGQSPKALIYSTSSRYTGVPDRFAGSGSGTDYTLTISNVQSEDLAEYFCQQYNTYPYTFGGGTRLDIKR", "% inhibition of biotinylated nAbs (%)": 97}
{"Binder": "HB5 (antibody, V domains shown, also called mHB5) VH: AELVRPGASVKISCKAFGYTFTNHNINWVKQRPGQGLDWIGYINPYNDYTSYNQKFKGKATLTVDKSSNTAYMELSSLTSEDSAVYYCARSEGWLRRGAWFAYWGQGTLVTVSA VL: AILSVSPGERVSFSCRASQSIGTSIHWYQQRTNDSPRLLIKYASESISGIPPRFSGSGSGTDFTLSINSVESEDIADYHCQQSNSWPMLTFGAGTKLELKR", "% inhibition of biotinylated nAbs (%)": 98}

Let us move to another entry and its % inhibition of biotinylated nAbs.
Query: Return reported % inhibition of biotinylated nAbs; argument: HB11 (antibody, V domains shown) VH: PSLVKPSQTLSLTCSVTGDSITSGFWNWIRKFPGNKLEYMGYISYSGSTYYNPSLKSRISITRDTSKNQYYLQLNSVTTEDTATYYCARGNGGNYDWYFDVWGAGTTVTVSS VL: AIMSASLGEKVTMSCRASSSVNFMNWYQQKSDDSPKLLIYYISNLAPGVPARFSGSGSGNSYSLTISGMEGEDAATYYCQQFTSSPSWTFGGGTKLEIKR
Result: 96
